Every entry's value here was drawn from patent US20060069132A1.

Tested on: eastern black nightshade
Method Description: Test C pre-/postemergence herbicide test
Format: in vivo, Solanum ptycanthum
Test Context: 250 g ai/ha; scale 0-100; preemergence
Catalogue of compounds with associated Plant response rating, Nightshade
Property: Plant response rating, Nightshade

item_smiles=CCc1nn(C(C)(C)C)cc1C(=O)Nc1cc(C(=O)N(C)C)ccn1 numeric_value=100
item_smiles=CC(=NO)c1cccc(NC(=O)c2sc(C(C)(C)C)nc2C)c1 numeric_value=0
item_smiles=CCNC(=O)c1cccc(NC(=O)c2sc(C(C)(C)C)nc2CC)c1 numeric_value=100
item_smiles=CCn1nc(C(C)(C)C)cc1C(=O)Nc1cccc(OC(F)F)c1 numeric_value=95
item_smiles=CCc1nn(C(C)(C)C)cc1C(=O)Nc1cc(C(=O)N(CC)CC)ccc1F numeric_value=100
item_smiles=CCn1nc(C(C)(C)C)cc1C(=O)Nc1cc(C(=S)N(C)C)ccc1F numeric_value=100
item_smiles=CCc1nn(C(C)(C)C)nc1C(=S)Nc1cccc(C(=S)N(C)C)c1 numeric_value=100

* * *

System: pigweed
Method Description: Test B pre-/postemergence herbicide test
Format: in vivo, Amaranthus retroflexus
Test Context: postemergence, 500 g ai/ha; visual rating, scale 0 (no effect) to 100 (complete control)
Property: Pigweed plant response rating

item_smiles=COC(=O)c1cccc(NC(=O)c2sc(C(C)(C)C)nc2C)c1 numeric_value=10
item_smiles=CC(=NO)c1cccc(NC(=O)c2sc(C(C)(C)C)nc2C)c1 numeric_value=80
item_smiles=CCn1nc(C(C)(C)C)cc1C(=O)Nc1cc(C(=O)NCCOC)ccn1 numeric_value=60
item_smiles=CCCCNS(=O)(=O)c1cccc(NC(=O)c2cc(C(C)(C)C)nn2C)c1 numeric_value=0
item_smiles=CCc1nc(C(C)(C)C)sc1C(=O)Nc1cccc(C(=O)NCC(F)(F)F)c1 numeric_value=40

* * *

Tested on: wheat
Method Description: Test B postemergence herbicide test
Format: in vivo, Triticum aestivum
Test Context: Postemergence, 500 g ai/ha; visual rating after 13 to 15 days, scale 0 (no effect) to 100 (complete control)
Parameter: Plant response rating, Wheat. Scope: all listed entries.
Property: Plant response rating, Wheat

item_smiles=CCOC(=O)c1cc(NC(=O)c2cc(C(C)(C)C)nn2CC)ccc1OC numeric_value=20
item_smiles=CCNC(=O)c1cc(NC(=O)c2cc(C(C)(C)C)nn2CC)ccc1C numeric_value=0
item_smiles=C=Cn1nc(C(C)(C)C)cc1C(=O)Nc1cccc(C(=O)NCC)c1 numeric_value=30
item_smiles=C#CCNC(=O)c1cccc(NC(=O)c2cc(C(C)(C)C)nn2CC)c1 numeric_value=30
item_smiles=C=CCNC(=O)c1cccc(NC(=O)c2cc(C(C)(C)C)nn2CC)c1 numeric_value=30
item_smiles=CC(=NO)c1cc(NC(=O)c2cc(C(C)(C)C)nn2C)ccc1F numeric_value=20

* * *

Test system: pigweed
Method Description: Test B pre-/postemergence herbicide test
Type: in vivo, Amaranthus retroflexus
Test Context: 125 g ai/ha; visual rating, scale 0 (no effect) to 100 (complete control); postemergence
Property: Pigweed plant response rating

compound="CCOC(=O)c1ccc(F)c(NC(=O)C2CN(C(C)(C)C)N=C2CC)c1 (racemic) [Compound 335]" result=20
compound="Cc1nn(C(C)C)nc1C(=O)Nc1cccc(C(=O)N2CC=CC2)c1 [Compound 406]" result=40
compound="CCOC(=O)c1ccc(F)c(NC(=S)c2cc(C(C)(C)C)nn2CC)c1 [Compound 346]" result=70
compound="CCc1nn(C(C)(C)C)nc1C(=O)Nc1cccc(C(=O)N2CC=CC2)c1 [Compound 366]" result=50
compound="CCc1nn(C(C)(C)C)cc1C(=O)Nc1cc(C(=O)N(C)C)ccn1 [Compound 293]" result=10
compound="CCn1nc(C(C)(C)C)cc1C(=O)Nc1cc(C(=S)N(C)C)ccn1 [Compound 334]" result=40
compound="CCN(C)C(=O)c1ccc(F)c(NC(=O)C2CC(C(C)(C)C)=NN2CC)c1 (racemic) [Compound 307]" result=50
compound="CCOC(=O)c1cccc(NC(=O)c2cc(C(C)(C)C)nn2C)n1 [Compound 313]" result=60

* * *

Measured Plant response rating, Ragweed of individual entries
Tested on: common ragweed
Method Description: Test C pre-/postemergence herbicide test
Type: in vivo, Ambrosia elatior
Set-up: key: 0 = no effect, 100 = complete control
Test Context: 125 g ai/ha; scale 0 (no effect) to 100 (complete control); visual, 12 to 14 days; preemergence
Property: Plant response rating, Ragweed

compound="C#CCn1nc(C(C)(C)C)cc1C(=O)Nc1cccc(C(=O)NCC)c1 [Compound 50]" experimental_target="common ragweed" numeric_value=40
compound="CCN(C)C(=O)c1cccc(NC(=O)c2cc(C(C)(C)C)nn2CC)c1 [Compound 48]" experimental_target="common ragweed" numeric_value=5
compound="CCNC(=O)c1cccc(NC(=O)c2sc(C(C)(C)C)nc2CC)n1 [Compound 213]" experimental_target="common ragweed" numeric_value=0
compound="CCNC(=O)c1cc(NC(=O)c2cc(C(C)(C)C)nn2CC)ccc1F [Compound 58]" experimental_target="common ragweed" numeric_value=85
compound="CCNC(=O)c1cccc(NC(=O)c2sc(C(C)(C)C)nc2CC)c1 [Compound 210]" experimental_target="common ragweed" numeric_value=0
compound="CCn1nc(C(C)(C)C)cc1C(=O)Nc1cccc(SC(F)(F)F)c1 [Compound 130]" experimental_target="common ragweed" numeric_value=10
compound="CCOC(=O)c1cccc(NC(=O)c2cc(C(C)(C)C)nn2CC)c1C [Compound 88]" experimental_target="common ragweed" numeric_value=0

* * *

System: giant foxtail
Method Description: Test A pre-/postemergence herbicide test
Format: in vivo, Setaria faberi
Test Context: Preemergence, 500 g ai/ha; visual rating, 0 to 100 scale (0 no effect, 100 complete control)
Property: Foxtail, Giant plant response rating

item_smiles=CCn1nc(C(C)(C)C)cc1C(=O)Nc1cccc(SC(F)(F)F)c1 numeric_value=50
item_smiles=C=CCNC(=O)c1cccc(NC(=O)c2cc(C(C)(C)C)nn2CC)c1 numeric_value=90
item_smiles=C=Cn1nc(C(C)(C)C)cc1C(=O)Nc1cccc(C(C)=O)c1 numeric_value=20
item_smiles=C#CCNC(=O)c1cccc(NC(=O)c2cc(C(C)(C)C)nn2CC)c1 numeric_value=90
item_smiles=CCCN1CCc2c(NC(=O)c3cc(C(C)(C)C)nn3CC)cccc2C1=O numeric_value=40

* * *

Tested on: large crabgrass
Method Description: Test C pre-/postemergence herbicide test
Format: in vivo, Digitaria sanguinalis
Test Context: 125 g ai/ha; scale 0 (no effect) to 100 (complete control); visual, 12 to 14 days; preemergence
Property: Plant response rating, Crabgrass, Large

molecule="CCn1nc(C(C)(C)C)cc1C(=O)Nc1cccc(C(N)=O)n1 [Compound 162]" property="Plant response rating, Crabgrass, Large" numeric_value=40
molecule="C=Cn1nc(C(C)(C)C)cc1C(=O)Nc1cccc(C(C)=NO)c1 [Compound 114]" property="Plant response rating, Crabgrass, Large" numeric_value=100
molecule="CCn1nc(C(C)(C)C)cc1C(=O)Nc1cc(C(=S)N(C)C)ccn1 [Compound 334]" property="Plant response rating, Crabgrass, Large" numeric_value=100

* * *

System: morningglory
Method Description: Test B pre-/postemergence herbicide test
Assay type: in vivo, Ipomoea coccinea
Test Context: 500 g ai/ha; visual rating 0-100, 0 no effect, 100 complete control; preemergence
Hi, to clarify the labels: y covers Plant response rating, Morningglory from 30 upward, n covers anything below 30.

compound="CCOC(=O)c1cccc(NC(=O)c2cc(C(C)(C)C)nn2CC)c1OC [Compound 97]" assigned_class=n
compound="C=CCNC(=O)c1cccc(NC(=O)c2sc(C(C)(C)C)nc2CC)c1 [Compound 207]" assigned_class=y
compound="CC(=NO)c1cccc(NC(=O)c2cc(C(C)(C)C)nn2CCF)c1 [Compound 115]" assigned_class=y
compound="CCn1nc(C(C)(C)C)cc1C(=O)Nc1cccc(C(=O)OC(C)(C)C)c1 [Compound 98]" assigned_class=n
compound="CCn1nc(C(C)(C)C)cc1C(=O)Nc1cccc(C(N)=O)n1 [Compound 162]" assigned_class=y

* * *

Tested on: velvetleaf
Method Description: Test B pre-/postemergence herbicide test
Assay type: in vivo, Abutilon theophrasti
Test Context: postemergence, 125 g ai/ha; visual rating, scale 0 (no effect) to 100 (complete control)
// values below are reported Velvetleaf plant response rating
Property: Velvetleaf plant response rating

compound="CCOC(=O)c1cc(N(C(C)=O)C(=O)c2cc(C(C)(C)C)nn2CC)ccc1C [Compound 141]" property="Velvetleaf plant response rating" numeric_value=20
compound="CC(=NO)c1cccc(NC(=O)c2sc(C(C)(C)C)nc2C)c1 [Compound 195]" property="Velvetleaf plant response rating" numeric_value=20
compound="C=Cn1nc(C(C)(C)C)cc1C(=O)Nc1cccc(C(C)=NO)c1 [Compound 114]" property="Velvetleaf plant response rating" numeric_value=50
compound="CCn1nc(C(C)(C)C)cc1C(=O)Nc1cc(C(=O)N(C)C)c(F)cc1F [Compound 270]" property="Velvetleaf plant response rating" numeric_value=0
compound="CCOC(=O)c1cc(NC(=O)c2cc(C(C)(C)C)nn2CC)c(F)cc1F [Compound 250]" property="Velvetleaf plant response rating" numeric_value=20
compound="CCn1nc(C(C)(C)C)cc1C(=O)Nc1cccc(C(=O)OC(C)(C)C)c1 [Compound 98]" property="Velvetleaf plant response rating" numeric_value=10
compound="CCNC(=O)c1cc(NC(=O)c2cc(C(C)(C)C)nn2CC)ccc1F [Compound 58]" property="Velvetleaf plant response rating" numeric_value=50
compound="CCc1nc(C(C)(C)C)sc1C(=O)Nc1cc(C(=O)N(CC)CC)ccc1F [Compound 230]" property="Velvetleaf plant response rating" numeric_value=20
compound="CCn1nc(C(C)(C)C)cc1C(=O)Nc1cc(C(=O)NCCOC)ccn1 [Compound 161]" property="Velvetleaf plant response rating" numeric_value=20
